Tested on: HL-60
protocol description: NCI tumour cell line growth inhibition, 48 h
The source made the active and inactive calls. Rule as the data show it: active = GI50 up to about 1.1 µM and inactive = higher.
Bench note: report the call from Yes = active, No = inactive

Clc1ccc(-c2ccc(-c3nnc(COc4ccc(OCc5nnc(-c6ccc(-c7ccc(Cl)cc7Cl)o6)o5)c(Cl)c4)o3)o2)c(Cl)c1 :: No
N#Cc1c2ccccc2cn1-c1ccc(F)cc1 :: No
CC[S+](C)c1ccc(-c2c3nc(c(-c4ccc([S+](C)CC)cc4)c4ccc([nH]4)c(-c4ccc([S+](C)CC)cc4)c4nc(c(-c5ccc([S+](C)CC)cc5)c5ccc2[nH]5)C=C4)C=C3)cc1.[O-][Cl+3]([O-])([O-])[O-].[O-][Cl+3]([O-])([O-])[O-].[O-][Cl+3]([O-])([O-])[O-].[O-][Cl+3]([O-])([O-])[O-] (stereo unspecified) :: No
O=C1CC(NC(=O)C(F)(F)F)c2c(Br)sc(N3CCC(c4ccccc4)CC3)c21 (stereo unspecified) :: No
COc1cc(/C=C2\C[C@H]3[C@@H]4CC=C5C[C@@H](N6CCCC6)CC[C@]5(C)[C@H]4CC[C@]3(C)[C@H]2O)cc(OC)c1OC :: No

Answer briefly: the call reported for CCOC12SC(Nc3ccc(C)cc3)=NN1C(=S)N(C)N=C2C (stereo unspecified) in this assay.
No

Answer briefly: the call reported for CC(=O)OCC1C(=O)OCC1C(=O)N1Cc2cc3ccccc3nc2C1 (stereo unspecified) in this assay.
Yes

Answer briefly: the call reported for `N/N=c1\c2ccccc2c2cc3c(cc12)/c(=N/N)c1ccccc13` in this assay.
No

----------
Tested on: EKVX
protocol description: NCI tumour cell line growth inhibition, 48 h
The source made the active and inactive calls. No stated cut-off is given here; in the data, active = GI50 up to about 1.1 µM and inactive = higher.
Bench note: report the call from true for active, false for inactive

O=C1C(c2ccc([N+](=O)[O-])cc2)=[N+]([O-])c2ccccc21 :: false
C[n+]1c2ccccc2c(/C=N\NS(=O)(=O)c2ccc(O)c(C(=O)O)c2)c2ccccc21 :: false
COc1ccccc1[C@@H]1CCC2CC[C@@H](c3ccccc3OC)[N+]21Cc1ccccc1 (stereo partly specified) :: true
CCCCC1C=Cn2c(=O)oc3c(OC(C)C)c(C)c(O)c1c32 (stereo unspecified) :: false
O=[N+]([O-])c1ccc(OCc2nnc(CCCCCCCCc3nnc(COc4ccc([N+](=O)[O-])cc4)o3)o2)cc1 :: false
CCCCCCCCCCCCCC(=O)OC1C(CO)OC(=O)C1O (stereo unspecified) :: false
N/C(=N\c1ccc(Cl)c(Cl)c1)c1ccccc1N :: false
CCOC12SC(Nc3ccc(C)cc3)=NN1C(=S)N(C)N=C2C (stereo unspecified) :: false

Answer briefly: the call reported for `COC(=O)c1ccc(-c2nc(C#N)c(N)o2)cc1` in this assay.
false

Answer briefly: the call reported for `Cc1ccc(/C=C2\CCCCCC2=O)cc1` in this assay.
false

Answer briefly: the call reported for `Cn1cnc2c(sc3nc4ccccc4n32)c1=N` in this assay.
false

----------
Tested on: OVCAR-8
protocol description: NCI tumour cell line growth inhibition, 48 h
Calls of active or inactive are those of the source. Cut-off read from the data, not from the text of the source: active = GI50 up to about 1.1 µM and inactive = higher.
Bench note: report the call from active, inactive

Known results for molecules:
O=C(O)CCC(c1ccccc1)(c1ccccc1)c1ccccc1 :: inactive
COc1ccc(-c2cc(-c3cc(F)c(Cl)cc3Cl)[nH]n2)cc1OC :: inactive
O=C(CN1c2ccccc2Sc2ccccc21)N1CCNCC1 :: inactive
COc1ccc(/C=C2\CCc3cc(OC)c(OC)cc3C2=O)cc1 :: inactive
SC1=Nc2ccccc2-c2nc(-c3ccccc3)cc(-c3ccc(Br)cc3)c2C1 :: active

Answer briefly: the call reported for CC12CCC(C1)C(C)(C)C2OC(=O)c1ccccc1C(=O)O (stereo unspecified) in this assay.
inactive

----------
Test system: U-251
protocol description: NCI tumour cell line growth inhibition, 48 h
Calls of active or inactive are those of the source. Cut-off read from the data, not from the text of the source: active = GI50 up to about 1.1 µM and inactive = higher.
recorded endpoint: GI50

Value lookup for GI50; key = `O=C(O)Cn1ncn(NC(=O)Cc2ccccc2)c1=S`
> 10 µM (inactive)

Value lookup for GI50; key = CCCCCC(C)SC1(C(=O)OC)CC(OC(C)=O)C(NC(C)=O)C([C@H](OC(C)=O)[C@@H](COC(C)=O)OC(C)=O)O1 (stereo partly specified)
> 100 µM (inactive)

Value lookup for GI50; key = COC1OC2COC(C)(C)OC2C(OC(C)=O)C1NC(=O)N(CCCl)N=O (stereo unspecified)
33.7 µM (inactive)

----------
System: U-251
protocol description: NCI tumour cell line growth inhibition, 48 h
Calls of active or inactive are those of the source. Cut-off read from the data, not from the text of the source: active = GI50 up to about 1.1 µM and inactive = higher.
Bench note: report the call from active, inactive

Known results for molecules:
C=CCOC(=O)Cn1ccc(=O)[nH]c1=O :: inactive
CC[C@@H]1/C=C/C=C/C[C@H](C)[C@@H](O)[C@](C)(O)C(=O)[C@H](C)[C@@H](O)[C@H](C)C(=O)[C@H](C)[C@@H](O)[C@H](C)/C=C/C(=O)O[C@H]2[C@@H](C)[C@@H](CC1)O[C@@]1(CC[C@@H](C)[C@@H](CC(C)O)O1)[C@@H]2C (stereo partly drawn) :: active
CC(C)C(C)/C=C\C(C)C1CCC2C3=CC=C4CC(O)CCC4(C)C3CCC21C (stereo not drawn) :: inactive

Answer briefly: the call reported for `Cc1ccc(C(=O)/C=C/c2cccc([N+](=O)[O-])c2)cc1` in this assay.
inactive

Answer briefly: the call reported for CCOC12SC(Nc3ccc(C)cc3)=NN1C(=S)N(C)N=C2C (stereo not drawn) in this assay.
inactive

Answer briefly: the call reported for `CCOC(=O)c1ccc(-c2onc(C)c2Br)[nH]1` in this assay.
inactive

Answer briefly: the call reported for `O=C(COC(=O)c1cccc2c(=O)c3ccccc3[nH]c12)Nc1ccccc1` in this assay.
inactive

Answer briefly: the call reported for COc1ccc(/C=C/C(=O)NCC(NC(=O)/C=C/c2ccc(OC)c(OC)c2)C(=O)O)cc1OC (stereo not drawn) in this assay.
inactive

----------
Tested on: OVCAR-8
protocol description: NCI tumour cell line growth inhibition, 48 h
The source made the active and inactive calls. Rule as the data show it: active = GI50 up to about 1.1 µM and inactive = higher.
Bench note: report the call from active, inactive

Known results for molecules:
CCCCCCCCCCCCCCCCCCOc1ccc(/C=C/C2=[N+](CCCl)CCO2)cc1 :: inactive
Cc1ncc([N+](=O)[O-])n1CCNC(=O)CCCn1cnc([N+](=O)[O-])n1 :: inactive
CC1=CCC(=O)[C@]2(C)C(CC(=O)O)[C@]3(C)C4=C(C)C(c5ccoc5)C[C@@H]4O[C@@H]3[C@H](O)[C@@H]12 (stereo not given in full) :: inactive
COc1cc(=O)oc(/C=C/C=C/C=C/C(C)=C\C2(C)OC(C)C(C)(O)C2O)c1C (stereo not given) :: inactive
CC(C(=O)NCNC(=O)c1ccccc1)C(=O)Nc1ccccc1 (stereo not given) :: inactive
COc1ccccc1-n1c(N)c2c(C)c(-c3ccccc3)[nH]c2nc1=S :: inactive

Answer briefly: the call reported for COc1cc2c(cc1O)CCN[C@@]21CS[C@H]2c3c(OC(C)=O)c(C)c4c(c3C(COC1=O)N1C2C2NC(Cc3cc(C)c(OC)c(O)c32)[C@@H]1O)OCO4 (stereo not given in full) in this assay.
active

Answer briefly: the call reported for C=C1C(C)C2C(Cc3ccccc3)NC(=O)C23C(OC(C)=O)/C=C/C(C)(O)CC(C)C/C=C/C3C1O (stereo not given) in this assay.
inactive

Answer briefly: the call reported for `Cc1cn(CC2=NCC(C)(C)CN2)c(=O)[nH]c1=O` in this assay.
inactive

Answer briefly: the call reported for `S=C(N/N=C(\c1ccccc1)c1ccccn1)NC1CCCCC1` in this assay.
active

Answer briefly: the call reported for `CN(C)CCN1C(=O)N(CCN(C)C)c2c3cc(O)ccc3nc3c([N+](=O)[O-])ccc1c23` in this assay.
inactive

Answer briefly: the call reported for `Cc1nc(-c2cc3c(ccc4ccccc43)oc2=O)cs1` in this assay.
inactive

----------
Tested on: ACHN
protocol description: NCI tumour cell line growth inhibition, 48 h
Activity calls are given as the source filed them. Rule as the data show it: active = GI50 up to about 1.1 µM and inactive = higher.
Bench note: report the call from true (1) for active, false (0) for inactive

Known results for compounds:
COC(=O)[C@H](CNC(=O)/C=C/c1ccc(OC(C)=O)c(OC(C)=O)c1)NC(=O)/C=C/c1ccc(OC(C)=O)c(OC(C)=O)c1 :: false (0)
COc1ccc(-c2cc(=O)c3c(O)c(O)c(OC)cc3o2)cc1O :: false (0)
Cc1cn(CC2=NCC(C)(C)CN2)c(=O)[nH]c1=O :: false (0)
COC(=O)Cc1ccc(Oc2nc3ccccc3nc2-c2cccs2)cc1 :: false (0)
COc1ccc(/C=C2\CCc3cc(OC)c(OC)cc3C2=O)cc1 :: false (0)

Answer briefly: the call reported for C=CC1ON(Cc2ccccc2)CCc2cc(OC)c(OC)cc21 (configuration not stated) in this assay.
false (0)

Answer briefly: the call reported for `COc1c(C)c(C/C=C(\C)CC/C=C(\C)CCC=C(C)C)c(OC)c(OC)c1OC` in this assay.
false (0)

Answer briefly: the call reported for `CN(C)CCCNc1ccnc2c([N+](=O)[O-])cccc12` in this assay.
false (0)
